# assay info: inhibitors of TNFa-induced NFkB p65 translocation, primary screen, imaging, HUVEC, MLSMR starter and 10KST1 sets (AID 438);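 also: compound added about 3h40 before a 20 min TNFalpha stimulation; signal is the nuclear over cytoplasmic p65 intensity ratio per well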
# study conditions: HUVEC TNFa-induced p65 nuclear translocation; at 2 µM, stronger effect = higher value, 0% TNFa-plus-vehicle, 100% no-TNFa wells
Calls of active or inactive are those of the source.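 The calls were made as follows: active = inhibition above 20% together with a positive visual image hit; inconclusive = visual image hit but inhibition not above 20%; inactive = no visual image hit.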
inhibition overview
property measured: inhibition

[
  {
    "molecule": "COc1ccc(C2c3c(oc4ccccc4c3=O)C(=O)N2c2ccc(C)cn2)cc1OC (configuration not stated)",
    "property measured": "inhibition",
    "result": "0% (inactive)"
  },
  {
    "molecule": "Cc1ccccc1N1C(N)=NC(N)=NC1(C)C",
    "property measured": "inhibition",
    "result": "-9.8% (inactive)"
  },
  {
    "molecule": "CCOC(=O)N1CCC(NC(=O)c2cnn3ccccc23)CC1",
    "property measured": "inhibition",
    "result": "7.4% (inactive)"
  },
  {
    "molecule": "CC1CN(C(=O)c2scc3c2OCCO3)CC(C)O1 (configuration not stated)",
    "property measured": "inhibition",
    "result": "-5.4% (inactive)"
  },
  {
    "molecule": "C=CCn1c(SCc2cccc(C#N)c2)nnc1-c1ccccc1O",
    "property measured": "inhibition",
    "result": "-2.3% (inactive)"
  },
  {
    "molecule": "Cn1nc(C(=O)NC2CCCCCC2)ccc1=O",
    "property measured": "inhibition",
    "result": "-4.6% (inactive)"
  },
  {
    "molecule": "Cc1ccccc1-n1nnc2c(=O)oc3ccccc3c21",
    "property measured": "inhibition",
    "result": "-1.6% (inactive)"
  },
  {
    "molecule": "CNC(=O)c1ccsc1NC(=O)c1ccccc1",
    "property measured": "inhibition",
    "result": "4.7% (inactive)"
  },
  {
    "molecule": "C/C(Cl)=C/Cn1c(SCc2ccc(Cl)cc2)nc2c1c(=O)[nH]c(=O)n2C",
    "property measured": "inhibition",
    "result": "-9.4% (inactive)"
  },
  {
    "molecule": "COc1ccc(C(=O)Cn2nnc(-c3cccs3)n2)cc1",
    "property measured": "inhibition",
    "result": "-7% (inactive)"
  },
  {
    "molecule": "COc1ccc(C2C3=C(OC(C)=O)c4ccccc4C3=Nc3c2c(=O)n(C)c(=O)n3C)cc1 (configuration not stated)",
    "property measured": "inhibition",
    "result": "0.2% (inactive)"
  },
  {
    "molecule": "CCOc1ccccc1NC(=O)CN(c1ccc(C)cc1)S(=O)(=O)c1c(C)noc1C",
    "property measured": "inhibition",
    "result": "2.2% (inactive)"
  },
  {
    "molecule": "Cc1nn(-c2ccc(Cl)cc2)c2sc(C(=O)N3CCN(c4ccccn4)CC3)cc12",
    "property measured": "inhibition",
    "result": "-3.6% (inactive)"
  },
  {
    "molecule": "c1ccc(Nc2ccccc2Nc2ccccn2)nc1",
    "property measured": "inhibition",
    "result": "4.4% (inactive)"
  },
  {
    "molecule": "Cc1cc(C(=O)OCCO)c(C#N)c(N)n1",
    "property measured": "inhibition",
    "result": "8.5% (inactive)"
  },
  {
    "molecule": "C=CCn1c(SCC(=O)NC2CCCCC2)nnc1-c1sc(N)nc1C",
    "property measured": "inhibition",
    "result": "-7.3% (inactive)"
  },
  {
    "molecule": "COc1ccccc1OCC(=O)N1CCNC1=O",
    "property measured": "inhibition",
    "result": "2.2% (inactive)"
  },
  {
    "molecule": "CCn1nnc(NC(=O)c2ccccc2Br)n1",
    "property measured": "inhibition",
    "result": "10.3% (inactive)"
  },
  {
    "molecule": "Cc1nc(CCNS(=O)(=O)c2cccs2)cs1",
    "property measured": "inhibition",
    "result": "-4.4% (inactive)"
  },
  {
    "molecule": "COc1cc(CN2CCN(C(=O)CC(C)C)CC2)cc(OC)c1O",
    "property measured": "inhibition",
    "result": "-11% (inactive)"
  },
  {
    "molecule": "Cc1nc(CNS(=O)(=O)c2cccc(F)c2)cs1",
    "property measured": "inhibition",
    "result": "5% (inactive)"
  },
  {
    "molecule": "Cc1ccc(NC(=O)CC2C(=O)NC3CCCCC3N2C(=O)c2ccc(F)cc2)cc1C (configuration not stated)",
    "property measured": "inhibition",
    "result": "-10.3% (inactive)"
  },
  {
    "molecule": "Nn1c(SCC(=O)NC2CCCCC2)nnc1-c1ccc(Cl)cc1",
    "property measured": "inhibition",
    "result": "0.7% (inactive)"
  },
  {
    "molecule": "COc1ccc(-c2noc(CCCC(=O)O)n2)cc1",
    "property measured": "inhibition",
    "result": "-7.8% (inactive)"
  },
  {
    "molecule": "COc1cccc(NC(=O)N2CCN(C(=O)C(Cc3ccc(OC)c(OC)c3)NC(C)=O)CC2)c1 (configuration not stated)",
    "property measured": "inhibition",
    "result": "-0.5% (inactive)"
  },
  {
    "molecule": "Cc1cc(C)cc(-n2nnc(C(=O)NCc3ccco3)c2N)c1",
    "property measured": "inhibition",
    "result": "0.2% (inactive)"
  },
  {
    "molecule": "CCOC(=O)Nc1c(O)ccc2oc(C)c(-c3ccccc3)c12",
    "property measured": "inhibition",
    "result": "-6.4% (inactive)"
  },
  {
    "molecule": "C=CCn1c(SCC(=O)O)nnc1-c1cccc(Cl)c1",
    "property measured": "inhibition",
    "result": "1.3% (inactive)"
  },
  {
    "molecule": "CCOC(=O)c1nnn(CC(=O)Nc2cccc(F)c2)c1C(=O)OCC",
    "property measured": "inhibition",
    "result": "-7.9% (inactive)"
  },
  {
    "molecule": "CC(C)CC1NC(=O)N(CC(=O)N2CCN(S(=O)(=O)c3ccc(Cl)cc3)CC2)C1=O (configuration not stated)",
    "property measured": "inhibition",
    "result": "4% (inactive)"
  },
  {
    "molecule": "c1ccc2oc(SCc3cn4ccccc4n3)nc2c1",
    "property measured": "inhibition",
    "result": "12.6% (inactive)"
  },
  {
    "molecule": "COc1ccc(-c2nnc(-c3ccc(N)cc3)o2)cc1",
    "property measured": "inhibition",
    "result": "5.5% (inactive)"
  }
]
